Where do these numbers come from? They come from PubChem BioAssay.

EXPERIMENTAL_SYSTEM: Luciferin 4-monooxygenase (Photinus pyralis) (UniProt P08659)
Sequence (P08659 whole entry, looked up): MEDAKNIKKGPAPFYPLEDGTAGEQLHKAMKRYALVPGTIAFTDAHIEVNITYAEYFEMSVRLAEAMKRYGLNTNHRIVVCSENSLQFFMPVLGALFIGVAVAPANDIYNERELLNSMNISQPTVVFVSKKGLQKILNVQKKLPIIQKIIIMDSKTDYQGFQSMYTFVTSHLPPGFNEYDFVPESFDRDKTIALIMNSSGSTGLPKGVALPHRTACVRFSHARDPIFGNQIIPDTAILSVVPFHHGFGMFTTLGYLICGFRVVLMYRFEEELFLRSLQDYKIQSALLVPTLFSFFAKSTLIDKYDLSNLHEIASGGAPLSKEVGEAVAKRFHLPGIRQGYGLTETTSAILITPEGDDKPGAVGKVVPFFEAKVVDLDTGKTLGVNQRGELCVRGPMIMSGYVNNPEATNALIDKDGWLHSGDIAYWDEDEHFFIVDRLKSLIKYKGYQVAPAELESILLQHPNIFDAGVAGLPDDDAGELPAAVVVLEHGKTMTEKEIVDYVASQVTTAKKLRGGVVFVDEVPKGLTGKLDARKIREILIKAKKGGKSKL
TEST_METHOD_NOTES: inhibition of purified Photinus pyralis luciferase – biochemical, luminescence, purified enzyme, 2006 set, primary screen (AID 1141);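 further: cell-free assay with purified firefly luciferase at 100 ng per well in PBS; test concentration not given here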
CONDITIONS: purified firefly luciferase, SteadyGlo luminescence, 30 min; higher = more signal, called active from +8 up or from −8 down
ENDPOINT_LABEL: z-score
Answer with a number only.

Past entries and their recorded results:
STRUCTURE_AS_SMILES: C=CCNC(=O)[C@@H]1[C@H]2C(=O)O[C@H](c3ccccc3)[C@H](c3ccccc3)N2[C@H](c2ccccc2OCCO)[C@@]12C(=O)Nc1ccc(C#CCC(C(=O)OC)C(=O)OC)cc12
z-score: -0.238
--
STRUCTURE_AS_SMILES: COCCOC(=O)N1C(=O)[C@@]2(c3cc(C#CC4(O)CCCCCC4)ccc31)[C@H](c1ccc(O)cc1)N1[C@H](c3ccccc3)[C@H](c3ccccc3)OC(=O)[C@H]1[C@@H]2C(=O)N1CCN(c2ncccn2)CC1
z-score: -0.47
--
STRUCTURE_AS_SMILES: C#Cc1cc2ccccc2oc1=O
z-score: -2.39

Result for C=CCNC(=O)[C@@H]1[C@H]2C(=O)O[C@H](c3ccccc3)[C@H](c3ccccc3)N2[C@H](c2ccccc2OCCO)[C@@]12C(=O)Nc1ccc(C#CCCO)cc12 , tested on Luciferin 4-monooxygenase (Photinus pyralis) (UniProt P08659), z-score: 0.467

So the reported z-score for NC(=O)NCC#Cc1ccc2c(c1)[C@]1(C(=O)N2)[C@H](c2ccccc2OCCO)N2[C@H](c3ccccc3)[C@H](c3ccccc3)OC(=O)[C@H]2[C@@H]1C(=O)O , on Luciferin 4-monooxygenase (Photinus pyralis) (UniProt P08659), turned out to be -0.521

# z-score measured on Luciferin 4-monooxygenase (Photinus pyralis) (UniProt P08659) for item CCOC(=O)C1=C[C@@H](c2ccccc2)N(S(=O)(=O)c2ccc(C)cc2)[C@H]1c1ccc(OC)cc1 = 1.51

* * *

TEST_METHOD_NOTES: probe aNOTCH3 binding on compound microarray – biochemical, small-molecule microarray, 635/667 nm fluorescence, primary screen (AID 1120);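 further: probe is a biotin-tagged antibody raised against NOTCH3 rather than NOTCH3 protein; score merges spot fluorescence near 667 nm with spot signal to noise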
CONDITIONS: higher = more signal
Please use the following composite z-score ranges when assigning a class: bottom = under -0.03, middle = from -0.03 up to 0.3, top = 0.3 and over

Recorded results for 3 compounds are shown here.
COMPOUND: C=CCN1C(=O)[C@]2(CCC(=O)OC(C)(C)C)N=C(c3ccc(OCCCO)cc3)O[C@@H]2c2ccccc21
CAT: middle
//
COMPOUND: COc1ccc([Si](C)(C)[C@H]2[C@H](CC(=O)N3CCC[C@H]3CO)O[C@@]3(C(=O)N(Cc4ccc(N5CCOC5=O)cc4)c4ccccc43)[C@@H]2C)cc1
CAT: top
//
COMPOUND: CC(CO)N1C(=O)[C@@H]2[C@H]3C(=O)OCC=C[C@H]3OC23C=CCN(Cn2nnc4ccccc42)C(=O)[C@@H]13 (some centres undefined)
CAT: bottom

Alright, here's another compound for you.
Q) Exercise: read the entry COc1ccc([Si](C)(C)[C@@H]2[C@@H](CCO)O[C@]3(C(=O)N(Cc4cccc(NC(=O)[C@H](C)O)c4)c4ccccc43)[C@H]2C)cc1 and state which class it falls under.
A) bottom
